B1: CPEB3 Ribozyme (parent)
chain: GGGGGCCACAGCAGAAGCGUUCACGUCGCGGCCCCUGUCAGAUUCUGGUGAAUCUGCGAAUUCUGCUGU

# Variants of: B1
# Measurement notes: self-cleavage, relative activity (ratio to wild type); higher = more cleavage; co-transcriptional
Quick rule: self-cleavage of at least 0.6 means Condition met, below that means Condition not met.

>  <Query sequence>
GGGGGCCACAGCAGAAGCGUUCACGUCGCGGCCCCUGUCAGCUUCUGGUGAAUCUGCGCAUUCUGCUGU

>  <Category>
Condition not met

$$$$
>  <Query sequence>
GGGGGCCACACCAGAAGCGUUCACGUCGCGGCCCCUGUCAGAUUCUGGUGAAUCUGCGAAUUCUACUGU

>  <Category>
Condition not met

$$$$
>  <Query sequence>
GGGGGCCACAGCAGAAGCGUUCACGGCGCGGCCCCUGUCAGAUUCUGGUGAAUCUGCGACUUCUGCUGU

>  <Category>
Condition not met

$$$$
>  <Query sequence>
GGGGUCCACAGCAGAAGCGUUCACGUCGCGGCCCCUGUCAGAUUCUGGUGAACCUGCGAAUUCUGCUGU

>  <Category>
Condition not met

$$$$
>  <Query sequence>
GGGGGCCACAGCAGAAGCGUUCCCGUCGGGGCCCCUGUCAGAUUCUGGUGAAUCUGCGAAUUCUGCUGU

>  <Category>
Condition not met

$$$$
>  <Query sequence>
GGGGGCCACAGCAGAAGCGUUCACGUCGCGGCCCCUGUCAGAUUCUGGUGAACCUGCGAAUUCUGUUGU

>  <Category>
Condition met

$$$$
>  <Query sequence>
GGGGGCCACAGCAGAAGCGUUCACGUCACGGCCCCUGUCAGAUUCUGGUGGAUCUGCGAAUUCUGCUGU

>  <Category>
Condition not met

$$$$
>  <Query sequence>
GGGGGCCACAGCAGAAGCGUUCACGUCGCGGCCCCCGUCAGAUUCUGGUGAAUCGGCGAAUUCUGCUGU

>  <Category>
Condition not met

$$$$
>  <Query sequence>
GGGGGCCACAGCAGAAGCGUUCACGUCGCGGCCCCUGUCAGAUUUUGGUGAAUCUGCGAAUUCUGCUAU

>  <Category>
Condition met

$$$$
>  <Query sequence>
GGGGGCCACAGCAGGAGCGUUCACGUCGCGGCCCCUGUCAGAUACUGGUGAAUCUGCGAAUUCUGCUGU

>  <Category>
Condition met

$$$$
>  <Query sequence>
GGGGGCCACAGCAGAAGCGUUCACGUCGCGGCCCCUGUCAGAUUAUUGUGAAUCUGCGAAUUCUGCUGU

>  <Category>
Condition met

$$$$
>  <Query sequence>
GGGGGCCACAGCAGAAGCGUUCACAUCGCUGCCCCUGUCAGAUUCUGGUGAAUCUGCGAAUUCUGCUGU

>  <Category>
Condition not met

$$$$
>  <Query sequence>
GGGGGCCACAGCAGAAGCGUGCACGUCGCGGCCCCUGUCAGAUUCUGGUGAAUCUGCGAAUUCUGCAGU

>  <Category>
Condition not met

$$$$
>  <Query sequence>
GGGGGCCACAGCAGAAGCGUUCACGUCGUGCCCCCUGUCAGAUUCUGGUGAAUCUGCGAAUUCUGCUGU

>  <Category>
Condition not met

$$$$
>  <Query sequence>
GGGGGCCACAGCAGAAUCGUUCACGUCGCGGCCCCUGUCAGAUUAUGGUGAAUCUGCGAAUUCUGCUGU

>  <Category>
Condition not met

$$$$
>  <Query sequence>
GGGGGCCACAGCAGAAGCGUUCACGUAGCGGCCCCUGUCAUAUUCUGGUGAAUCUGCGAAUUCUGCUGU

>  <Category>
Condition not met

$$$$
>  <Query sequence>
GGGGGCCACAGCAGAAGCGUUCACGUCGCGGCCCCUGUCAGAUUUUGGUGAAUCUGCGAAUUCUACUGU

>  <Category>
Condition met

$$$$
>  <Query sequence>
GGGGGCCUCAGCAGAAGCGUUCACGUCGAGGCCCCUGUCAGAUUCUGGUGAAUCUGCGAAUUCUGCUGU

>  <Category>
Condition not met

$$$$
>  <Query sequence>
GGGGGCCACAGCAGAAGCGUUCACGUCGCAGCCCCUGUCAGAUUCUGGUGAAUCUGCGAACUCUGCUGU

>  <Category>
Condition not met

$$$$
>  <Query sequence>
GGUGGCCACAGCAGAAGCGUUCACGUAGCGGCCCCUGUCAGAUUCUGGUGAAUCUGCGAAUUCUGCUGU

>  <Category>
Condition not met

$$$$
>  <Query sequence>
GGUGGCCACAGCAGAAGCGUUCACGUCGCGGCCCCUGUCAGAUUCUGGUGAAUCUACGAAUUCUGCUGU

>  <Category>
Condition not met

$$$$
>  <Query sequence>
GGGGGCCACAGCAGAAGCGUUCACGUCGCGGCCCCUGUCAGAUUCUGGUGAAUAUGCGAAUUCUGCUCU

>  <Category>
Condition met

$$$$
>  <Query sequence>
GGGGGCCACAGCAGAAGCGUUCACGUCGCGGCCCCUGUCAGAUUCUGGUGAAUCUGCGAAGCCUGCUGU

>  <Category>
Condition met

$$$$
>  <Query sequence>
GGGGGCCACAGCAGAAGCCUUCACGUCGCGGCCCCUGUCAGAUUCUGGUGAAUCUGCGAAUUUUGCUGU

>  <Category>
Condition not met

$$$$
>  <Query sequence>
GGGGGCCACAGCAGAAGCGUUCACGUCGCGGCUCCUGUCAGAUUCUGGUGAAUCUGCGAAUUCUGUUGU

>  <Category>
Condition met

$$$$
>  <Query sequence>
GGGGCCCACAGCAGAAGCGUUCACGUCGCGGCCCCUGUCAGAUUCUGGUGAAUCUGCGAAUUCUGGUGU

>  <Category>
Condition not met

$$$$
>  <Query sequence>
GGGGGCCACACCAGAAGCGUUCACGUCGCGGCCCCUGUCAGAUUCUGGUGAAUCGGCGAAUUCUGCUGU

>  <Category>
Condition not met

$$$$

Where these numbers come from: the RNAGym collection of RNA variant scans (doi:10.7554/elife.80360)
